Values were extracted from the supplement of paper PMC9732359.

protocol: protein stability index of a GFP-peptide fusion (yeast GPS) (PSI 1-4); higher = more stable; sorted into four equal gates, so the index is relative within each strain
recorded_conditions: pdr5∆
measurement_label: protein stability index
Lab note: jot the number down without any unit.

The following sequences have reported results that may help.
VRTNTLTKAAIVQIDAT [RPS8A] : 2.54
VESQFSAGRLYACISSR [RPS8A] : 2.65
NGITLALIDAGISMFDY [SKI6] : 1.51

### Prompt # lookup: protein stability index of RLNKLNSNGIAMASLYL [SMD1]
### Response 2.95

### Prompt # lookup: protein stability index of NSAIIQNLRKELLIYKK [YIL149C/MLP2]
### Response 2.6

### Prompt # lookup: protein stability index of GSTGGLGASFGQQQQQS [YGL172W/NUP49]
### Response 2.81

### Prompt # lookup: protein stability index of LADDDEERFSELFKGYL [RPL5]
### Response 2.05

### Prompt # lookup: protein stability index of HLSSKTGLHFGRLSLRS [QCR10]
### Response 3.06

### Prompt # lookup: protein stability index of GENIDADNDGPRINNIS [SNF2]
### Response 3.53

### Prompt # lookup: protein stability index of TSNNETNNGNDDNETEN [GRR1]
### Response 3.28

* * *

protocol: protein stability index of a GFP-peptide fusion (yeast GPS) (PSI 1-4); higher = more stable; sorted into four equal gates, so the index is relative within each strain
recorded_conditions: ubr1∆
// label = rule met if protein stability index is not less than 3, otherwise rule not met

NMGMNNMNNGGKELDSL [PGD1] : rule met
RLFIGDQNNKKMVGLRG [SNF2] : rule not met
VKDKQSKVSDDSESESG [RPN8] : rule not met
ELTIIKNPRVTKEYLVQ [CSN9] : rule met
LEDMVFPTEIVGKRVRY [RPS7B] : rule not met

### Prompt Test whether the sequence LNAKYQSLGLDDLQKFN [ISW2] records protein stability index of 3 or higher.
### Response rule not met

### Prompt Test whether the sequence YKCTAAMEKYLLSKSKI [MTW1] records protein stability index of 3 or higher.
### Response rule not met

### Prompt Test whether the sequence LMEASDAFRVHICGICG [RPB2] records protein stability index of 3 or higher.
### Response rule not met

* * *

protocol: protein stability index of a GFP-peptide fusion (yeast GPS) (PSI 1-4); higher = more stable; sorted into four equal gates, so the index is relative within each strain
recorded_conditions: pdr5∆
// label = Yes if protein stability index is not less than 3, otherwise No

// below: answered sequences
GRVKALEQFMERNNIGE [YDL116W/NUP84] : No
MAAEKILTPESQLKKSK [RPL7A] : Yes
KVDINADSAVNRQTLMF [PRP28] : Yes
TAVGKAAVVKTSSRQTV [RPT5] : Yes
LIARRDDESPRFVMPNQ [RRP6] : Yes

### Prompt Test whether the sequence DINVELFPVAAQDSLTV [RPB8] records protein stability index of 3 or higher.
### Response No

### Prompt Test whether the sequence ADVFTDDDLFETLVLSY [YCG1] records protein stability index of 3 or higher.
### Response No

### Prompt Test whether the sequence SGGSRNTSESLLVDIQK [SMC2] records protein stability index of 3 or higher.
### Response No

### Prompt Test whether the sequence NHWRQNKGRAVYINPSG [BRR2] records protein stability index of 3 or higher.
### Response No

### Prompt Test whether the sequence GSCTRQLAGKSGEDTNV [YOR098C/NUP1] records protein stability index of 3 or higher.
### Response Yes
